# Tested on: Candida parapsilosis
# EXPERIMENTAL DETAILS: Antifungal activity against Candida parapsilosis by NCCLS broth microdilution method
# Assay type: functional
Flag rule - MIC90 less than 20 µg/mL flags Condition met; the remaining entries get Condition not met.

> print(dat)
                                   molecule              class
1  CC1CC2C(=NO)C(C1)C(c1ccccc1F)NC2c1ccccc1F (stereo in doubt; 49b)  Condition not met
2  CC1CC2C(=NO)C(C1)C(c1ccccc1F)NC2c1ccccc1F (stereo in doubt; 49a)  Condition not met
3  CON=C1C2CC(C)CC1C(c1ccccc1Cl)NC2c1ccccc1Cl (stereo in doubt; 58a)      Condition met
4  CC1CC2C(=NO)C(C1)C(c1cccc(F)c1)NC2c1cccc(F)c1 (stereo in doubt; 50b)  Condition not met
5  CON=C1C2CC(C)CC1C(c1cccc(F)c1)NC2c1cccc(F)c1 (stereo in doubt; 56b)      Condition met
6  CON=C1C2CC(C)CC1C(c1ccccc1Cl)NC2c1ccccc1Cl (stereo in doubt; 58b)      Condition met
7  CC1CC2C(=NO)C(C1)C(c1ccccc1Cl)NC2c1ccccc1Cl (stereo in doubt; 52b)      Condition met
8  CON=C1C2CC(C)CC1C(c1ccccc1F)NC2c1ccccc1F (stereo in doubt; 55b)      Condition met
9  CON=C1C2CC(C)CC1C(c1ccccc1F)NC2c1ccccc1F (stereo in doubt; 55a)  Condition not met

* * *

In this section we review reported MIC90 values for a set of compounds.
# System: Klebsiella pneumoniae
# EXPERIMENTAL DETAILS: Antibacterial activity against Klebsiella pneumoniae by NCCLS broth microdilution method
# Type: functional
# SETTINGS: Klebsiella pneumoniae; read-out: MIC90
TEST READOUT: MIC90 (µg/mL)

> print(dat)
                                    compound  test.readout  unit.descriptor  relation.symbol  observed.value
 1  CC1CC2C(=NO)C(C1)C(c1cccc(F)c1)NC2c1cccc(F)c1 (stereo in doubt; 50a)         MIC90            µg/mL                =              32
 2  CO/N=C1\C2CCCC1(C)C(c1cccc(F)c1)NC2c1cccc(F)c1 (stereo not given)         MIC90            µg/mL                =              32
 3  CON=C1C2CC(C)CC1C(c1cccc(Cl)c1)NC2c1cccc(Cl)c1 (stereo not given)         MIC90            µg/mL                =              32
 4  CC12CCCC(/C1=N\O)C(c1cccc(F)c1)NC2c1cccc(F)c1 (stereo not given)         MIC90            µg/mL                =              32
 5  CO/N=C1\C2CCCC1(C)C(c1ccccc1Cl)NC2c1ccccc1Cl (stereo not given)         MIC90            µg/mL                =               8
 6  COc1ccccc1C1NC(c2ccccc2OC)C2(C)CCCC1/C2=N\O (stereo not given)         MIC90            µg/mL                =             128
 7  Cc1ccc(C2NC(c3ccc(C)cc3)C3(C)CCCC2/C3=N\O)cc1 (stereo not given)         MIC90            µg/mL                >             128
 8  CON=C1C2CC(C)CC1C(c1ccc(F)cc1)NC2c1ccc(F)cc1 (stereo not given)         MIC90            µg/mL                =               8
 9  CC1CC2C(=NO)C(C1)C(c1ccccc1Cl)NC2c1ccccc1Cl (stereo in doubt; 52a)         MIC90            µg/mL                =              32
10  CO/N=C1\C2CCCC1(C)C(c1ccccc1F)NC2c1ccccc1F (stereo not given)         MIC90            µg/mL                =               4
